The entries below come with measured Binding Score values attached.
- experimental-target: T1, Soluble CTLA-4-Ig (extracellular domain of human CTLA-4 fused to the Fc portion of human IgG1) (human, UniProt P16410 36-161, FITC-conjugated in the FACS binding assays)
- T1 construct: extracellular domain; bought from R&D Systems; also called sCTLA-4-Ig; CTLA-4-Ig Fc; not shown: Fc portion of human IgG1
- T1 sequence (P16410 36-161): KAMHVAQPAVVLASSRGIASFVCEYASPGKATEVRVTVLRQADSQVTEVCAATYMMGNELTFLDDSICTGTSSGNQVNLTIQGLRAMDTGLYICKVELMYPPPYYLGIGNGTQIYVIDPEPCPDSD
- procedure-details: competitive FACS on transfected cells, FITC-sCTLA-4-Ig with biotin-sCD28-Ig; grade 0-2 of CTLA-4/CD28 ratio vs WT hB7-1

binder: Round 2 CTLA4BP-5x2-10c (ligand) VIHVTKEVKEVATLSCGHNVSVEELAQTRIHWQKEKKMVLTMMSGDMNIWPEYKNRTIFDITNNLSIVILALRPSDEGTYECVVLKYEKDAFKREHLAEVMLSVKADFPTPSITDFEIPPSNIRRIICSTSGGFPEPHLSWLENGEELNAINTTVSQDPETELYTVSSKLDFNMTANHSFVCLIKYGHLRVNQTFNWNTPKQEHFPDNLLPSWAITLISVNGIFVICCLTYCFAPRCRERRNETLRRESVRPV
Binding Score: 2
//
binder: Round 2 CTLA4BP 5x3-c4 (ligand) VIHVTKEVKEVATLSCGHNVSVEELAQTRIYWQKEKKMVLTMMSGDMNIWPEYKNRTIFDITNNLSIVILALRPSDEGTYECVVLKYEKDAFKREHLAEVTLSVKADFPTPSISDFEIPPSNIRRIICSTSGGFPEPRLAWMEDGEELNAINTTASQDPETELYTVSSKLDFNMTTNRSFVCLIKYGHLRVNQTFNWNTPKQEHFPDNLFPSWAITLISVNGIFVICCLTYCFAPRCRERRRNERLRRESVRPV
Binding Score: 1
//
binder: Round 2 CTLA4BP 2x1-c9 (ligand) VIHVTKEVKEVATLSCGHNVSAEELAQTRIYWQKEKKMVLTMMSGDMNIWPEYKNRTIFDITNNLSIVILALRPSDEGTYECVVLEYEKDAFKREHLAEVMLSVKADFPTPSITDFEIPTSNIRRIICSTSGGFPEPRLAWMEDGEELNAISTTASQDPETELYTVSSKLDFNMTTNHSFMCLIKYGHLRVNQTFNWNTPKQEHFPDNLLPSWAITLISVNGIFVICCLTHCFAPRCRERRRNERLRRESVCPV
Binding Score: 1
//
binder: Round 2 CTLA4BP 5x2-f3 (ligand) VIHVTKEVKEVATLSCGHNVSVEELAQTRIYWQKEKKMVLTMMPGDMNIWPEYKNRTIFDITNNLSIVILALRPSDEGTYECVVLRYEKDAFKREHLAEVTLSVKADFPTPSISDFEIPTSNIRRIICSTSGGFPEPHLSWLENGEELNAINTTASQDPETELYTVSSKLDFNMTTNRSFVCLIKYGHLRVNQTFNWNTPKQEHFPDNLLPSWAITLISANGIFVICCLTHCFAPRCRERKSNERLRRESVRPV
Binding Score: 0
//
binder: Round 2 CTLA4BP 5x9-d10 (ligand) VIHVTKEVKEVATLSCGLNVSVEELAQTRIYWQKGKKMVLTMMSGDMNIWPEYKNRTIFDITNNLSIVILALRPSDEGTYECVVLEYEKDAFKREHLAEVMLSVKADFPTPSISDFEIPPSNIRRIICSTSGGFPEPHLSWLENGEELNAINTTASQDPGTELYTVSSKLDFNMTTNHSFMCLIKYGHLRVNQTFNWNTPKQEHFPDNLLPSWAITLISVNGIFVICCLTHCFAPRCRERRRNERLRRESARPV
Binding Score: 1
//
binder: Round 2 CTLA4 A-F1-6 (ligand) ITPKSVTKRVKETVMLSCDYSTSTEELTSLRIYWQKDSKMVLAILPGKVQVWPEYKNRTITDMNDNPRIVILALRLSDKGTYTCVVQKNENGSFRREHLTSVRLMIRADFPVPTINDLGNPSPNIRRLICSTSGGFPRPHLYWLENGEELNATNTTLSQDPETKLYMISSELDFNMTSNHSFLCLVKYGDLTVSQTFYWQESKPTPSANQHLTWTIIIPVSAFGISVIIAVILTCLTCRNAAIRRQRRENEVEMQSCSQSP
Binding Score: 1
//
binder: Round 1 CTLA4BP-13 (ligand, also called R1-13; R1 CTLA-4BP-13) VIHVTKEVKEVATLSCGHNVSVEELAQTRIYWQKEKKMVLTMMSGDMNIWPEYKNRTIFDITNNLSIVILALRPSDEGTYECVVLKYEKDAFKREHLAEVTLSVKADFPTPSISDFEIPTSNIRRIICSTSGGFPEPHLFGLENGEEINAINTTASQDPETELYTVSSKLDFNMTPNRSFVCLIKYGHLRVNQTFNWNTPKQEHFPDNLLPSWAITLISANGIFVICCLTYCFAPRCRERKSNERLRRESVRPV
Binding Score: 1
//
binder: Round 2 CTLA4BP-5x3-6f (ligand) VIHVTKEVKEVATLSCGHNVSVEELAQTRIYWQKGKKMVLTMMSGDMNIWPEYKNRTIFDITNNLSIVILALRPSDEGTYECVVLEYEKDAFKREHLAEVMLSVKADFPTPSISDFEIPTSNIRRIICSTSGGFPEPHLSWLENGEELNAINTTASQDPETELYTVSSKLDFNMTTNHSFMCLIKYGHLRVNQTFNWNTPKQEHFPDNLLPSWAITLISANGIFVICCLAYCFAPGCRERKSNERLRRESVRPV
Binding Score: 2
//
binder: Round 2 CTLA4BP-5x6-9d (ligand) VIHVTKEVKEVATLSCGHNVSVEELAQTRIHWQKEKKMVLTMMSGDMNIWPEYKNRTIFDITNNLSIVILALRPSDEGTYECVVLKYEKDAFKREHLAEVMLSVKADFPTPSISDFEIPTSNIRRIICSTSGGFPEPHLSWLENGEELNAINTTVSQDPETELYTVSSKLDFNMTANHSFVCLIKYGHLRVNQTFNWNTPKQEHFPDNLLPSWAITLISVNGIFVICCLTYCFAPRCRERRRNERLRRESVRPV
Binding Score: 2
